# Target: TYK2 (Homo sapiens, UniProt P29597)
# Sequence (P29597 whole entry): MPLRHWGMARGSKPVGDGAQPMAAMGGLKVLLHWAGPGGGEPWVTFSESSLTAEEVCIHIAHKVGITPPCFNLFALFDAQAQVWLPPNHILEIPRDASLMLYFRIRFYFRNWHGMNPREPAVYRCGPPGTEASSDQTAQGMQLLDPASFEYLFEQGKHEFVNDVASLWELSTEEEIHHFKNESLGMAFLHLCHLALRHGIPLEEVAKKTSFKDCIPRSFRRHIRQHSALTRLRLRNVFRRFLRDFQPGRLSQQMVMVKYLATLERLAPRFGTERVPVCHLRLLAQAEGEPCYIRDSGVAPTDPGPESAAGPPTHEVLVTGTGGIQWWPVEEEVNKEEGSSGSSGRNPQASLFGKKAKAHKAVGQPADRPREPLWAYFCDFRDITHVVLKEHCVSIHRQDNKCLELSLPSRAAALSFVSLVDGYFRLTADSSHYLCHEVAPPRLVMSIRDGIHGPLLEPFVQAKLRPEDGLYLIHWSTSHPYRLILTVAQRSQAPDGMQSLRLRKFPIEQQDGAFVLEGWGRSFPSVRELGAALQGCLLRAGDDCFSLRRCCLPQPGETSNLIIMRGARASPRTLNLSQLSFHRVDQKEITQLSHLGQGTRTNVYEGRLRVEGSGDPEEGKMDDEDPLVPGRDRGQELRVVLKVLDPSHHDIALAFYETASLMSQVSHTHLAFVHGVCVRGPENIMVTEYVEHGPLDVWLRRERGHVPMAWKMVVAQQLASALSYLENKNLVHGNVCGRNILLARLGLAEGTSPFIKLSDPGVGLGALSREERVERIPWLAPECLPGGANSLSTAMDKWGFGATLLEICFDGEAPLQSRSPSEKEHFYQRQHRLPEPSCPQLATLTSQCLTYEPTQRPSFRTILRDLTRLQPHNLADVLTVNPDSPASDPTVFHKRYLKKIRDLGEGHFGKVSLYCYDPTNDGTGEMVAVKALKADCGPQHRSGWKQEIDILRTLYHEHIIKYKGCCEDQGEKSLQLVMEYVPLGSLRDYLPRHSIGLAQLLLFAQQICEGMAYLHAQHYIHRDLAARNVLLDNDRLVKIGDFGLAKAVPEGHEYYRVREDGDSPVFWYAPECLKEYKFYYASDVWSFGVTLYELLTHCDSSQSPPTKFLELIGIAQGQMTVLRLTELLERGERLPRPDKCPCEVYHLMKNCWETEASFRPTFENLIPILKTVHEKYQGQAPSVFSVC
# Measurement Protocol: Biochemical potency on Tyk2, TR-FRET LANCE Ultra kinase assay (examples 1-99)
# Test Settings: ATP at Km (12 μM), read-out: Tyk2 inhibitory activity (pIC50 class) (converted)
The entries below are paired with their reported IC50.

Worked cases, answers included:
Query: Identify the reported IC50 for the following entry. COc1ccc(Cl)cc1-n1nc(N2CCNCC2)c2cnc(-c3cnn4cccnc34)cc21
Reply: 0.00501 to 0.0501 µM

Query: Identify the reported IC50 for the following entry. Cc1nn(-c2cc(Cl)ccc2OC(F)F)c2cc(-c3cnn4cccnc34)ncc12
Reply: 0.00501 to 0.0501 µM

Others:
Query: Identify the reported IC50 for the following entry. COc1ccc(Cl)cc1-n1nc(C)c2cnc(-c3cnn4cccnc34)cc21
Reply: 0.00501 to 0.0501 µM

Query: Identify the reported IC50 for the following entry. COc1ccc(Cl)cc1-n1ncc2c(N)nc(-c3cnn4cccnc34)cc21
Reply: 0.00501 to 0.0501 µM

Query: Identify the reported IC50 for the following entry. COc1cc(O)ccc1-n1nc(C)c2cnc(-c3cnn4cccnc34)cc21
Reply: > 0.0501 µM
